From: patent US9464078B2

PROCEDURE DETAILS: solubility in water
Assay type: physicochemical
Counter-ions that a name gives are not always drawn.
OBSERVED PROPERTY: solubility (mg/mL)

- c1ccc(-c2nnc(O[C@@H]3C4CC5C[C@H]3C[N@](C5)C4)s2)cc1 [dihydrogen citrate anhydrate]: 28
